MEASUREMENT_TARGET: GlunN1/GluN2A glutamate receptors (Homo sapiens (Human), UniProt Q05586+Q12879)
Sequence (Q12879 23-1464, other chains not shown): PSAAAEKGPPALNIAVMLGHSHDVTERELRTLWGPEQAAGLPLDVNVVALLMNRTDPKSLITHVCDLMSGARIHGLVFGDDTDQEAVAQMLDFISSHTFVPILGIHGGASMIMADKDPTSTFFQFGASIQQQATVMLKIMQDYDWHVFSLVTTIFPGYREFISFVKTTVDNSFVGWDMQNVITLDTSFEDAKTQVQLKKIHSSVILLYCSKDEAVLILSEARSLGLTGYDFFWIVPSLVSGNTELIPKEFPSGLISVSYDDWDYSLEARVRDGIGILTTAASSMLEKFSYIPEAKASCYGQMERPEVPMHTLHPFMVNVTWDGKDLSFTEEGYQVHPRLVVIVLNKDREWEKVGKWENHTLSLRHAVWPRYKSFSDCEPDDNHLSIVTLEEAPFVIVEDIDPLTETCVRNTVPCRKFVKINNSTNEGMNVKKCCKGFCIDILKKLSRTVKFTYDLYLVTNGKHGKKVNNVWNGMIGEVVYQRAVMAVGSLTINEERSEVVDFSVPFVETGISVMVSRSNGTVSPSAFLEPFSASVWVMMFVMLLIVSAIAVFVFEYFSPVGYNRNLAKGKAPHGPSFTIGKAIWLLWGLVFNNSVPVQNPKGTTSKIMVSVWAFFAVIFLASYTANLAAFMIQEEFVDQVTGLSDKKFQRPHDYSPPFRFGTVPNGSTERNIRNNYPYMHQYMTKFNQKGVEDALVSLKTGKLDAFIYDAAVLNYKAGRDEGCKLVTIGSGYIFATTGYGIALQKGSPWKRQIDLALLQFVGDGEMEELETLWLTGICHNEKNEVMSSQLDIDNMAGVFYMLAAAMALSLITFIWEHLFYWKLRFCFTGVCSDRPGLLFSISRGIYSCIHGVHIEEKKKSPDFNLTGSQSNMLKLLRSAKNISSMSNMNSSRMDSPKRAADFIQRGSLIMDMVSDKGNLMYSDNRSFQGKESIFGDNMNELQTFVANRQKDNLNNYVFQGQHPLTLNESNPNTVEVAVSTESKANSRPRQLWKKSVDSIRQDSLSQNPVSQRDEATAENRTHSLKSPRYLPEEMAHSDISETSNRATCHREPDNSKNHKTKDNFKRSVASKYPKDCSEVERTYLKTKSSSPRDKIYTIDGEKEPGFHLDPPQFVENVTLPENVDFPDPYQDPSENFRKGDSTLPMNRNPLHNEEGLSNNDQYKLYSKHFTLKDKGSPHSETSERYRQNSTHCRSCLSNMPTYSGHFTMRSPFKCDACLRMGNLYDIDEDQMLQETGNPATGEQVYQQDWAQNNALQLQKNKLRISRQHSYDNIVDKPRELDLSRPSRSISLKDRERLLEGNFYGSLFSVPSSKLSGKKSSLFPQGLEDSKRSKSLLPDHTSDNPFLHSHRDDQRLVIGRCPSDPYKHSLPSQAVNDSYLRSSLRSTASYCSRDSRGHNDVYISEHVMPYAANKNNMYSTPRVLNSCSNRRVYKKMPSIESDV
PROTOCOL: Whole-cell patch clamp of mammalian cells (Ionworks Barracuda), positive allosteric modulation, GluN1/GluN2A
Type: cell-based
CONDITION_NOTES: HEK293 cells; % potentiation of current elicited with EC20 L-glutamate and 30 μM glycine; read-out: Avg Emax 2A (%)
# key: entry, value: Emax

- MOLECULE: "CC[C@@H](O)CC[C@@H](C)[C@H]1CC[C@H]2[C@@H]3CC=C4C[C@](O)(CC)CC[C@@H]4[C@H]3CC[C@]12C [Compound 8584]"
  Emax (%): 284
- MOLECULE: "CC(C)[C@@H](O)CC[C@@H](C)[C@H]1CC[C@H]2[C@@H]3CC[C@H]4C[C@](O)(C(F)(F)F)CC[C@]4(C)[C@H]3CC[C@]12C [Compound 2A]"
  Emax (%): 653
- MOLECULE: "C[C@H](CCC[C@H](O)C(C)(C)C)[C@H]1CC[C@H]2[C@@H]3CC[C@H]4C[C@](O)(C(F)(F)F)CC[C@]4(C)[C@H]3CC[C@]12C [Compound 12156]"
  Emax (%): 43.2
